- System Tested: Platelet-activating factor receptor (Homo sapiens, UniProt P25105)
- Sequence (P25105 whole entry): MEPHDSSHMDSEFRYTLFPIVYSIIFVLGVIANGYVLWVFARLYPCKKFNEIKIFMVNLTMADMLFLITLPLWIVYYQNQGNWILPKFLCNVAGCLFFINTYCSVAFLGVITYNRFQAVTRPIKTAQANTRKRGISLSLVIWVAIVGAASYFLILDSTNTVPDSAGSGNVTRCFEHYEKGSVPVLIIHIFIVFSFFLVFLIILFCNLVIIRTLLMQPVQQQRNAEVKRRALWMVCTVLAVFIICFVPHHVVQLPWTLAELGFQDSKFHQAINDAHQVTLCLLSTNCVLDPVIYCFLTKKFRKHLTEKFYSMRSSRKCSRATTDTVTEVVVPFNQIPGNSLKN
- Protocol Details: Binding affinity against platelet activating factor
Measured Endpoint: Binding affinity (µM)

1) CC(=O)O[C@@H]1C(=O)O[C@H]2O[C@@]34CCCC35[C@@H](C[C@@H](C(C)(C)C)C215)OC4=O (some centres not stated): 11
2) COCO[C@@H]1C(=O)OCC12C13[C@H]4C[C@@]2(C(C)(C)C)O[C@]1(C[C@@H](Cl)[C@@H]3Cl)C(=O)O4 (some centres not stated): 0.3
3) C[C@@H]1C(=O)O[C@H]2CC34[C@H]5C[C@@H](C(C)(C)C)C36[C@@H](OC(=O)[C@@H]6O)O[C@@]4(C(=O)O5)[C@]21O (some centres not stated): 17.8
4) CC(C)(C)[C@@H]1C[C@H]2OC(=O)[C@]34C[C@@H](Cl)[C@H](Cl)C23[C@@]12[C@@H](OC(=O)[C@@H]2O)O4 (some centres not stated): 1.3

[a] COCO[C@@H]1C(=O)OCC12C13[C@H]4C[C@@]2(C(C)(C)C)O[C@]1(C[C@@H](Cl)[C@@H]3OCOC)C(=O)O4 (some centres not stated)
[b] CC(C)(C)[C@@]12C[C@H]3OC(=O)[C@@]4(CCCC34C13COC(=O)[C@H]3O)O2 (some centres not stated)
[c] CC(C)(C)[C@]12C[C@H]3OC(=O)[C@@]4(CCCC34[C@@]13COC(=O)[C@@H]3O)O2
Exercise: Reorder: Binding affinity, max to min. Would you mind listing the labels in the order requested?
Solution: c, b, a
(c: 76 µM, b: 13 µM, a: 0.3 µM)
